# Test system: L1210 leukemia ip in BDF1 mice, survival T/C
# test.name: NCI In Vivo Anticancer Drug Screen. Data for tumor model L1210 Leukemia (intraperitoneal) in B6D2F1 (BDF1) mice
# condition.parameters: endpoint: mean survival time; dose: 100.0 mg/kg/injection; schedule: Q01DX001 (ip); vehicle: saline
Inconclusive results and toxic doses are left out. Cut-off read from the data, not from the text of the source: active = T/C of 150% or more; inactive = T/C below 125%.
Outcomes: label 1 for active, label 0 for inactive

- NCCP(=O)(O)c1ccccc1: label 0
- O=C1OC(=O)C2C(c3ccccc3)=CC(c3ccccc3)=CC12 (stereo not drawn): label 0
- CCOC(=O)C(CCCCC(C(=O)OCC)C(=O)OCC)C(=O)OCC: label 0
- CCC(N)CO (stereo not drawn): label 0
- ClC1=C(Cl)C2(Cl)C(Cl)CC1(Cl)C2(Cl)Cl (stereo not drawn): label 0
- CC(O)(CC(=O)O)c1ccc([N+](=O)[O-])cc1 (stereo not drawn): label 0
- CS(=O)(=O)OCCN(CCOS(C)(=O)=O)c1ccc(/C=N/Nc2ccc([N+](=O)[O-])cc2[N+](=O)[O-])cc1: label 0
- COc1ccc(/C=C2\N=C(c3ccccc3)OC2=O)cc1OC: label 0
- CC(=O)c1ccc2nc(C)cc(Cl)c2c1: label 0
- OC(CCl)C(O)C(O)C(O)CCl (stereo not drawn): label 0
- O=C(c1ccccc1)c1cccc(Cl)c1: label 0
- CC(C)CCC[C@@H](C)[C@H]1CC[C@H]2[C@@H]3CC=C4C[C@@H](O)CC[C@]4(C)[C@H]3CC[C@]12C: label 0
- O=c1[nH]cnc2c1[nH]c(=S)n2C1OC(CO)C(O)C1O (stereo not drawn): label 0
- O=c1cc(CO)[nH]c(=O)[nH]1: label 0
- CC#CC(O)(C(=O)OCC)C1CCCCC1 (stereo not drawn): label 0
- Nn1nnc2ccccc21: label 0
- C=CC[N+](C)([O-])c1ccc(C(=O)OC)cc1 (stereo not drawn): label 0
- O=[N+]([O-])c1ccc(O)c(C2OCCCO2)c1: label 0
- O=c1/c(=C\c2ccccc2)sc2n1CCN=2: label 0
- Oc1ccccc1C=Nc1cccc2c(N=Cc3ccccc3O)cccc12: label 0
- Cc1ccccc1S(=O)(=O)CC(Cl)c1ccccc1 (stereo not drawn): label 0
- Cc1ccc(-c2nc(C#N)c(C#N)nc2-c2ccc(C)cc2)cc1: label 0
- Cc1cnc(SC(C)(C)C)c(C)c1: label 0
- CC(=O)C(C)CCOC1(C)OCCC1C (stereo not drawn): label 0
- O=C(c1ccccc1)C1C(C(=O)c2ccccc2)C(c2ccccc2)N(c2ccccc2)C1c1ccccc1 (stereo not drawn): label 0
- CS(=O)(=O)OCCCNCCCOS(C)(=O)=O: label 1
- Nc1cccc(OCCOc2ccc([N+](=O)[O-])cc2)c1: label 0
- Cc1ccc(S(=O)(=O)N(c2cc(C)ccc2C)c2ccccc2N)cc1: label 0
- CC(C)(CC(=O)c1ccccc1)CC(=O)c1ccccc1: label 0
- COc1ccc(OC)c2c(C)cc(=O)[nH]c12: label 0
- CCOC(Nc1ccc(Cl)cc1Cl)C(=O)c1ccccc1 (stereo not drawn): label 0
- O=P(OCCCCl)(OCCCCl)C(Cl)(Cl)Cl: label 0
- Cc1cncc(CC(O)(C(F)(F)F)C(F)(F)F)n1: label 0
- [O-]/[N+](=C\c1ccccc1)c1ccccc1: label 0
- CC[n+]1cn(-c2ccc(S(=O)(=O)[O-])cc2)nn1: label 0
- CCOc1c(CNC(=O)CCl)cc(N)cc1CNC(=O)CCl: label 0
- CCOCCN=Cc1ccccc1O.CCOCCN=Cc1ccccc1O.[Co]: label 0
- Cc1ccc(S(=O)(=O)c2ccccc2C)s1: label 0

* * *

# Tested on: L1210 leukemia ip in BDF1 mice, survival T/C
# test.name: NCI In Vivo Anticancer Drug Screen. Data for tumor model L1210 Leukemia (intraperitoneal) in B6D2F1 (BDF1) mice
# condition.parameters: endpoint: mean survival time; dose: 400.0 mg/kg/injection; schedule: Q04DX003 (ip); vehicle: other; higher = longer survival
Inconclusive results and toxic doses are left out.
quantity: T/C

* Cc1ccc(NC(=O)C(=O)Nc2ccc(C)cc2)cc1 | 89 % of control
* COc1ccc(CN(CC(=O)O)S(C)(=O)=O)cc1 | 95 % of control
* Cc1nnc(N)s1 | 98 % of control
* COc1ccc(C(=O)c2c(C(=O)O)ccc3ccccc23)cc1 | 100 % of control
* CS(=O)(=O)N(CC(=O)O)Cc1ccc(F)cc1 | 94 % of control
* CC(C)CC(=O)Nc1ccccc1 | 89 % of control

* * *

# Tested on: L1210 leukemia ip in BDF1 mice, survival T/C
# test.name: NCI In Vivo Anticancer Drug Screen. Data for tumor model L1210 Leukemia (intraperitoneal) in B6D2F1 (BDF1) mice
# condition.parameters: endpoint: mean survival time; dose: 400.0 mg/kg/injection; schedule: Q04DX003 (ip); vehicle: Klucel (hydroxypropylcellulose) (HPC); higher = longer survival
Toxic doses and inconclusive results are not listed.
quantity: T/C

• COC(=O)Nc1nc2ccc(Br)cc2[nH]1 = 94 % of control
• C=CCOc1ccccc1Cl = 103 % of control
• Cc1c(Cl)cccc1NC(=O)c1ccccc1 = 98 % of control
• Cc1ccc(NC(=S)NC(Cc2ccccc2)c2ccccc2)c(C)c1 (configuration not stated) = 98 % of control
• Nc1ccc(OCCCc2c(N)nc(N)nc2N)c(Cl)c1 = 97 % of control
• c1ccc(C2OC2c2ccccc2)cc1 (configuration not stated) = 109 % of control
• O=C(Nc1ccc(F)cc1)Oc1ccccn1 = 105 % of control
• CC(C)Nc1nc(Cl)nc(NC(C)C)n1 = 94 % of control
• Nc1nc2nnc(-c3ccccc3)c(-c3ccccc3)n2n1 = 91 % of control
• CC(=O)CC(=O)Nc1ccc(-c2ccc(NC(=O)CC(C)=O)c(Cl)c2)cc1Cl = 91 % of control
• O=NN(c1ccccc1)c1ccc(N(N=O)c2ccccc2)cc1 = 96 % of control
• C=COC1CCCCC1 = 88 % of control
• Cc1ccc(NC(=O)OCCN2CCNC2=S)c([N+](=O)[O-])c1 = 96 % of control
• COC(=O)C(NC(C)=O)C(=O)OC = 106 % of control
• O=C(Nc1ccc(Nc2ccccc2)cc1)Nc1ccc(F)c(Cl)c1 = 94 % of control
• Brc1c(-c2ccccc2)cc(-c2ccccc2)cc1-c1ccccc1 = 91 % of control
• NC(=O)CCc1cnc2ccccc2n1 = 97 % of control
• OC1c2ccccc2C=Cc2ccccc21 = 101 % of control
• O=[N+]([O-])c1cc(S(=O)(=O)O)c(Nc2ccccc2)cc1NCCO = 90 % of control
• Cc1cccc(C)c1NC(=O)Oc1ccc(C2CCCCC2)cc1 = 88 % of control
• C/C(CCC(=O)O)=N\NC(=O)Cc1cccc2ccccc12 = 102 % of control
• CN(C)c1ccc(/C=C\C(=O)c2ccccc2)cc1 = 94 % of control
• Cn1c(=O)c2ccccc2c2cc(Cl)ccc21 = 93 % of control
• O=C1C2C(C(=O)N1c1ccccc1)N2CCO (configuration not stated) = 113 % of control
• CC1=C(C)CC2C(=O)OC(=O)C2C1 (configuration not stated) = 98 % of control
• CCCCCc1ccc2oc(=O)c3ccc(C)cc3c2c1O = 97 % of control
• COC(=O)CCNCc1ccccc1 = 103 % of control
• Cc1ccc(C(=O)c2ccn[nH]2)cc1 = 96 % of control
• O=C(CC(=O)c1ccccc1)Cc1ccccc1.O=C(CC(=O)c1ccccc1)Cc1ccccc1.[Cu] = 104 % of control
• C[n+]1ccc(/C=C/C(=O)Nc2ccccc2)cc1 = 98 % of control
• Cc1ccc(NC(=S)N(C)C)cc1Cl = 104 % of control
• O=C1OCCN1S(=O)(=O)c1ccc(Cl)cc1 = 96 % of control
• CCCCCCCCCCC(=O)OCC#CC#CCOC(=O)CCCCCCCCCC = 91 % of control
• O=C(O)C(Cl)c1ccccc1 (configuration not stated) = 97 % of control
• C=CCNC(=S)Nc1cc(Cl)ccc1OC = 94 % of control
• CCOP(=S)(OCC)SCc1c(C)c(C)c(CSP(=S)(OCC)OCC)c(C)c1C = 105 % of control
• CCCCCCCCc1ccc(C(=O)O)cc1 = 91 % of control
• C/C(CCCCCCCCC#N)=N/Nc1ccc([N+](=O)[O-])cc1[N+](=O)[O-] = 98 % of control
• COc1ccc(NC(=O)Nc2cc(Cl)ccc2OC)cc1 = 90 % of control
• CCCCCCCN(CCCCCCC)CC(O)c1c2ccccc2cc2c1ccc1ccccc12 (configuration not stated) = 93 % of control
• Cc1c(Cl)cccc1NC(=O)c1ccc(Cl)cc1 = 91 % of control
• CCOC(=O)c1cnc(SC)nc1N1CCOCC1 = 100 % of control

Just for reference, PubChem BioAssay AID248 is where these values come from.
